Consider the following compounds; for each one, report its log10(IC50).
Target: Amine oxidase [flavin-containing] A (Homo sapiens, UniProt P21397)
Sequence (P21397 whole entry): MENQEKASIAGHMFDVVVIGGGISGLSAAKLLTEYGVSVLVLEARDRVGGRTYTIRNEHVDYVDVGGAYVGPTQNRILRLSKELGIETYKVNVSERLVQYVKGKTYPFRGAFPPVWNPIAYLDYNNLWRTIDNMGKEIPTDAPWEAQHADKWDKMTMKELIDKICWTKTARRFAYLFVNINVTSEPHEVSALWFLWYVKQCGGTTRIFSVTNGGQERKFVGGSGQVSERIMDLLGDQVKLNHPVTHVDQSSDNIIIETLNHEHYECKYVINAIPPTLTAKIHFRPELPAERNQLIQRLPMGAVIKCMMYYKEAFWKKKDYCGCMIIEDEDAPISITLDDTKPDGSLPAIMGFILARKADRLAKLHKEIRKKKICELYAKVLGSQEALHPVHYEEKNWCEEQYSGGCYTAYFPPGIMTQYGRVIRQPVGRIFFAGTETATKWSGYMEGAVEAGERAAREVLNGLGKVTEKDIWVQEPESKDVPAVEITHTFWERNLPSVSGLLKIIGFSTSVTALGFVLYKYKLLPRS
Assay: Inhibition of recombinant human MAO-A expressed in baculovirus infected BTI insect cells using p-tyramine as substrate pretreated for 15 mins followed by substrate addition after 20 mins by Amplex red reagent based fluorimetric method
Quick note: numbers are log10 of IC50, with µM as the unit.

Query :: // log10(IC50) lookup, key: O=c1c(/C=N/c2ncccc2O)coc2ccccc12
Result :: 0.87

Query :: // log10(IC50) lookup, key: O=c1c(/C=N/c2cc(Cl)ccc2O)coc2ccc(Br)cc12
Result :: 0.66

Query :: // log10(IC50) lookup, key: O=c1c(/C=N/c2cccc(Cl)c2O)coc2ccc(Br)cc12
Result :: 0.65

Query :: // log10(IC50) lookup, key: Cc1ccc(O)c(/N=C/c2coc3ccc(Br)cc3c2=O)c1
Result :: 0.85

Query :: // log10(IC50) lookup, key: O=c1c(/C=N/c2cc(F)ccc2O)coc2ccccc12
Result :: 0.67

Query :: // log10(IC50) lookup, key: O=c1c(/C=N/c2ccc(Cl)cc2O)coc2ccccc12
Result :: 0.15

Query :: // log10(IC50) lookup, key: Cc1ccc2occ(/C=N/c3cc(F)ccc3O)c(=O)c2c1
Result :: 0.58

Query :: // log10(IC50) lookup, key: Cc1ccc(/N=C/c2coc3ccccc3c2=O)c(O)c1
Result :: 0.80

Query :: // log10(IC50) lookup, key: Cc1ccc2occ(/C=N/c3cc(Cl)ccc3O)c(=O)c2c1
Result :: 0.33

Query :: // log10(IC50) lookup, key: O=c1c(/C=N/c2cc(F)ccc2O)coc2ccc(Br)cc12
Result :: 0.49

Query :: // log10(IC50) lookup, key: O=c1c(/C=N/c2cc(Cl)ccc2O)coc2ccccc12
Result :: 0.29

Query :: // log10(IC50) lookup, key: O=c1c(/C=N/c2ncccc2O)coc2ccc(Br)cc12
Result :: 0.99

Query :: // log10(IC50) lookup, key: Cc1ccc2occ(/C=N/c3ncccc3O)c(=O)c2c1
Result :: 0.87

Query :: // log10(IC50) lookup, key: Cc1ccc(O)c(/N=C/c2coc3ccc(C)cc3c2=O)c1
Result :: 0.71

Query :: // log10(IC50) lookup, key: Cc1ccc2occ(/C=N/c3cc([N+](=O)[O-])ccc3O)c(=O)c2c1
Result :: 0.86

Query :: // log10(IC50) lookup, key: O=c1c(/C=N/c2cc3ccccc3cc2O)coc2ccccc12
Result :: 0.53

Query :: // log10(IC50) lookup, key: Cc1ccc2occ(/C=N/c3ccc(Cl)cc3O)c(=O)c2c1
Result :: 0.42

Query :: // log10(IC50) lookup, key: Cc1ccc(O)c(/N=C/c2coc3ccccc3c2=O)c1
Result :: 0.52

Query :: // log10(IC50) lookup, key: O=c1c(/C=N/c2ccccc2O)coc2ccccc12
Result :: 0.83

Query :: // log10(IC50) lookup, key: O=c1c(/C=N/c2ccc(Cl)cc2O)coc2ccc(Br)cc12
Result :: 0.50

Query :: // log10(IC50) lookup, key: O=c1c(/C=N/c2cccc(Cl)c2O)coc2ccccc12
Result :: 0.22

Query :: // log10(IC50) lookup, key: O=c1c(/C=N/c2ccc(F)cc2O)coc2ccc(Br)cc12
Result :: 0.43

Query :: // log10(IC50) lookup, key: Cc1ccc(/N=C/c2coc3ccc(C)cc3c2=O)c(O)c1
Result :: 1.32
